ASSAY NOTES: Solubility of the compound in water at 10 mg measured after 24 hrs by HPLC method
Type: physicochemical
REPORTED PROPERTY: solubility at 24 h (µg/mL)

INSERT INTO results (input_smiles, experimental_result) VALUES
  ('CN(C/C=C/C=C/c1ccc(C(F)(F)F)cc1)Cc1ccc2c(c1)OCCO2.Cl', 7900),
  ('CN(C/C=C/c1ccc(C(F)(F)F)cc1)Cc1ccc2c(c1)OCCO2.Cl', 13500),
  ('COc1ccc(/C=C/CN(C)Cc2ccc3c(c2)CCCCC3)cc1.Cl', 4200),
  ('CN(C/C=C/C=C/C=C/c1ccc(C(F)(F)F)cc1)Cc1ccc2c(c1)OCCO2.Cl', 3300),
  ('CN(C/C=C/c1ccc(C(F)(F)F)cc1)Cc1ccc2c(c1)CCCC2.Cl', 690),
  ('Cc1ccc(/C=C/CN(C)Cc2ccc3c(c2)OCCO3)cc1.Cl', 6500);

* * *

TARGET: 4,4'-diapophytoene desaturase (4,4'-diaponeurosporene-forming) (Staphylococcus aureus (strain Newman), UniProt O07855)
ASSAY NOTES: Inhibition of CrtN in Staphylococcus aureus Newman assessed as reduction in staphyloxanthin levels after 48 hrs by spectrophotometric method-based pigment inhibition assay
Parameters: species or system Staphylococcus aureus subsp. aureus str. Newman
Each entry below carries its recorded IC50.
REPORTED PROPERTY: IC50

INSERT INTO measurements (input_smiles, reported_property, experimental_result) VALUES
  ('Cc1cccc(/C=C/CN(C)Cc2ccc3c(c2)OCCO3)c1', 'IC50', '0.0434 µM'),
  ('CN(C/C=C/c1ccc(C(F)(F)F)cc1)Cc1ccc2c(c1)OCCO2.Cl', 'IC50', '0.0029 µM'),
  ('CN(C/C=C/c1ccccc1F)Cc1ccc2c(c1)OCCO2', 'IC50', '> 1 µM'),
  ('Cc1ccccc1/C=C/CN(C)Cc1ccc2c(c1)OCCO2', 'IC50', '> 1 µM'),
  ('CN(C/C=C/c1cccs1)Cc1ccc2c(c1)OCCO2', 'IC50', '0.221 µM'),
  ('CN(C/C=C/C=C/C=C/c1ccc(C(F)(F)F)cc1)Cc1ccc2c(c1)OCCO2.Cl', 'IC50', '0.0016 µM');

* * *

ASSAY NOTES: Half life in human liver microsomes at 2 uM by LC-MS/MS analysis
Format: ADME, microsome
Each entry below carries its recorded half-life at 2 µM.
REPORTED PROPERTY: half-life at 2 µM

INSERT INTO measurements (compound, experimental_result) VALUES
  ('Cc1ncc2n1-c1ccc(Cl)cc1C(c1ccccc1F)=NC2 [MIDAZOLAM]', '4.2 min'),
  ('CN(C/C=C/C=C/c1ccc(C(F)(F)F)cc1)Cc1ccc2c(c1)OCCO2.Cl', '7.9 min');

* * *

ASSAY NOTES: Cytotoxicity against human HepG2 cells after 72 hrs by CCK8 assay
Format: cell-based
REPORTED PROPERTY: CC50 at 72 h (µM)

INSERT INTO results (input_smiles, readout_unit, experimental_result) VALUES
  ('CN(C/C=C/C=C/c1ccc(C(F)(F)F)cc1)Cc1ccc2c(c1)OCCO2.Cl', 'µM', 67.8),
  ('C[C@@H]1[C@H](O)[C@@H](C)/C=C/C=C/C=C/C=C/C=C/C=C/C=C/[C@H](O[C@@H]2O[C@H](C)[C@@H](O)[C@H](N)[C@@H]2O)C[C@@H]2O[C@](O)(C[C@@H](O)C[C@@H](O)[C@H](O)CC[C@@H](O)C[C@@H](O)CC(=O)O[C@H]1C)C[C@H](O)[C@H]2C(=O)O', 'µM', 37.8);

* * *

TARGET: 4,4'-diapophytoene desaturase (4,4'-diaponeurosporene-forming) (Staphylococcus aureus (strain Newman), UniProt O07855)
Sequence (O07855 whole entry): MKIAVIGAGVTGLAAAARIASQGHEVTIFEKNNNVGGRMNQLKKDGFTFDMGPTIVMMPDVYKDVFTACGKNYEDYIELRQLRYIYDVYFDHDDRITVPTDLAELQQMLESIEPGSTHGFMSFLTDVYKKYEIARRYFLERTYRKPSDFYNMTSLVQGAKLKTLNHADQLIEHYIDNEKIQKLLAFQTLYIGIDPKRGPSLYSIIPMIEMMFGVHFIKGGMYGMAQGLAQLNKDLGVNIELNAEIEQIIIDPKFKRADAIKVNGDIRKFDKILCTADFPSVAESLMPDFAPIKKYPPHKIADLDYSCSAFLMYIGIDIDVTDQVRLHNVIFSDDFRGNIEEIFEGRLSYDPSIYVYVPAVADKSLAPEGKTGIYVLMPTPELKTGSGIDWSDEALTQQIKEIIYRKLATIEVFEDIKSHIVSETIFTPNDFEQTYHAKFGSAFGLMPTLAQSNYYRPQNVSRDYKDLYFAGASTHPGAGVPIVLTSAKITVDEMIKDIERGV
ASSAY NOTES: Inhibition of Staphylococcus aureus Newman […]-tagged CrtN expressed in Escherichia coli BL21(DE3))/pET28a::CrtN assessed as reduction in staphyloxanthin levels using diapophytoene as substrate after overnight incubation
Set-up: species or system Staphylococcus aureus subsp. aureus str. Newman
pIC50: −log10 of the molar value.
REPORTED PROPERTY: pIC50

INSERT INTO assay_data (input_smiles, experimental_result) VALUES
  ('CN(C/C=C/c1ccc(C(F)(F)F)cc1)Cc1ccc2c(c1)OCCO2.Cl', 6.47),
  ('CN(C/C=C/C=C/c1ccc(C(F)(F)F)cc1)Cc1ccc2c(c1)OCCO2.Cl', 6.57),
  ('CN(C/C=C/C=C/C=C/c1ccc(C(F)(F)F)cc1)Cc1ccc2c(c1)OCCO2.Cl', 6.59);

* * *

TARGET: 4,4'-diapophytoene desaturase (4,4'-diaponeurosporene-forming) (Staphylococcus aureus (strain Newman))
Sequence (O07855 whole entry): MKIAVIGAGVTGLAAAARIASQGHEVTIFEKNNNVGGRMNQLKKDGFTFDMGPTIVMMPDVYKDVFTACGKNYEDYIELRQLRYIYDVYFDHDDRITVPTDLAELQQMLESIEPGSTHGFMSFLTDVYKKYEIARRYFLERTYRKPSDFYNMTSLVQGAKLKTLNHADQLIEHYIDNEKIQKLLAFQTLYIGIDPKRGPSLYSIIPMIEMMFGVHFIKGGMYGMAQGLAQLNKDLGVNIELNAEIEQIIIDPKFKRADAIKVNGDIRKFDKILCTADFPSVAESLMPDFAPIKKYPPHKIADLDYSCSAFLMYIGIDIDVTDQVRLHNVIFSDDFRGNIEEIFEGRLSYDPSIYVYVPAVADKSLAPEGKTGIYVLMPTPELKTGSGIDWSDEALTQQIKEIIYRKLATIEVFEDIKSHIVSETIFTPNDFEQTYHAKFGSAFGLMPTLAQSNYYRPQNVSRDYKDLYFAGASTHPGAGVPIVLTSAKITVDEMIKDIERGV
ASSAY NOTES: Inhibition of CrtN in Staphylococcus aureus Newman assessed as reduction in staphyloxanthin levels after 48 hrs by spectrophotometric method-based pigment inhibition assay
Design: species or system Staphylococcus aureus subsp. aureus str. Newman
pIC50: −log10 of the molar value.
REPORTED PROPERTY: pIC50

INSERT INTO results (input_smiles, reported_property, censor_symbol, experimental_result) VALUES
  ('CN(C/C=C/c1cccc(Cl)c1)Cc1ccc2c(c1)OCCO2', 'pIC50', '=', 6.95),
  ('COc1ccc(/C=C/CN(C)Cc2ccc3c(c2)OCCO3)c(F)c1', 'pIC50', '=', 7.36),
  ('COc1ccccc1/C=C/CN(C)Cc1ccc2c(c1)OCCO2', 'pIC50', '<', 6.00),
  ('CN(C/C=C/c1cccc(C(F)(F)F)c1)Cc1ccc2c(c1)OCCO2', 'pIC50', '<', 6.00),
  ('CCOc1ccc(/C=C/CN(C)Cc2ccc3c(c2)OCCO3)cc1', 'pIC50', '=', 8.09),
  ('CN(C/C=C/c1cccc(F)c1)Cc1ccc2c(c1)OCCO2', 'pIC50', '<', 6.00),
  ('CN(C/C=C/c1ccc(C(F)(F)F)c(F)c1)Cc1ccc2c(c1)OCCO2', 'pIC50', '=', 7.86),
  ('CN(C/C=C/c1ccccc1)Cc1ccc2c(c1)OCCO2', 'pIC50', '=', 6.43);

* * *

Each entry below carries its recorded CC50 at 72 h.
ASSAY NOTES: Cytotoxicity against HEK293T cells after 72 hrs by CCK8 assay
Type: cell-based, HEK-293T
PARTICULARS: human
REPORTED PROPERTY: CC50 at 72 h (µM)

INSERT INTO measurements (compound, experimental_result) VALUES
  ('C[C@@H]1[C@H](O)[C@@H](C)/C=C/C=C/C=C/C=C/C=C/C=C/C=C/[C@H](O[C@@H]2O[C@H](C)[C@@H](O)[C@H](N)[C@@H]2O)C[C@@H]2O[C@](O)(C[C@@H](O)C[C@@H](O)[C@H](O)CC[C@@H](O)C[C@@H](O)CC(=O)O[C@H]1C)C[C@H](O)[C@H]2C(=O)O [AMPHOTERICIN B]', 27.5),
  ('CN(C/C=C/C=C/c1ccc(C(F)(F)F)cc1)Cc1ccc2c(c1)OCCO2.Cl', 50.3);
